- test-method-notes: BSK_3C_uPAR: BioMAP Diversity Plus: 3C Assay for Urokinase-type plasminogen activator receptor (uPAR) Biomarker Activity (AID 2282998)
- reported-conditions: BioMAP 3C HUVEC, uPAR biomarker ELISA; actives raise or lower the signal
Calls of active or inactive are those of the source. How the source made its calls: active means hit-call score of the fitted dose curve at least 0.9, where 1 is the maximum; inactive means score below 0.9.
Hi! Could you answer with just one of these? active, inactive

Worked cases, answers included:
>>> category("C[C@]12CC[C@@H]3c4ccc(O)cc4CC[C@H]3[C@@H]1CC[C@H]2O")
"active"
>>> category("CCCCCCCCOc1ccc(C(=O)c2ccccc2)c(O)c1")
"inactive"
>>> category("NCc1cccc(C2CCN(C(=O)c3ccc(C#Cc4ccccc4F)o3)CC2)c1")
"active"
>>> category("OC12N=C(c3ccccc3)SC1Cc1cc(Cl)ccc12 (configuration not stated)")
"inactive"
>>> category("Cc1cn([C@H]2C[C@H](N=[N+]=[N-])[C@@H](CO)O2)c(=O)[nH]c1=O")
"inactive"

Prompt: Recorded call for "CN(C[C@@H](CC[N+]12CCC(C3CCCCC3)(CC1)CC2)c1ccc(Cl)c(Cl)c1)C(=O)c1cc(C(F)(F)F)cc(C(F)(F)F)c1" ?
Response: active

Prompt: Write down the call the test reported for this compound. Item: "CC(C)(C)c1csc(-c2cc3cc(OCc4ccccc4CC(=O)O)ccc3o2)n1"
Response: active
